Assay: Titratable groups in 66% aqueous DMF (Tables XIV-XVI)
Assay type: physicochemical
Conditions: Titratable groups
From the text: ^c Run in 66% aqueous DMF ^d Run in 66% aqueous DMF
Below, each entry is listed alongside its reported pKa.
experimental_endpoint: pKa

1) CCC1OC(=O)CC(O)C(C)C(OC2OC(C)C(O)C(N(C)C)C2O)C(CCN2CCC(O)CC2)CC(C)C(=O)C=CC(C)=CC1COC1OC(C)C(O)C(OC)C1OC (stereo not drawn) = 8.7
2) CCC1OC(=O)CC(O)C(C)C(OC2OC(C)C(O)C(N(C)C)C2O)C(CCN2CCCCCC2)CC(C)C(=O)C=CC(C)=CC1COC1OC(C)C(O)C(O)C1OC (stereo not drawn) = 9.7
3) CCC1OC(=O)CC(O)C(C)C(OC2OC(C)C(O)C(N(C)C)C2O)C(CCN2CCCC3CCCCC32)CC(C)C(=O)C=CC(C)=CC1COC1OC(C)C(O)C(OC)C1OC (stereo not drawn) = 9.4
4) CCC1OC(=O)CC(O)C(C)C(OC2OC(C)C(O)C(N(C)C)C2O)C(CCN2CC3(C)CC2CC(C)(C)C3)CC(C)C(=O)C=CC(C)=CC1COC1OC(C)C(O)C(OC)C1OC (stereo not drawn) = 9.7
5) CCC1OC(=O)CC(O)C(C)C(OC2OC(C)C(O)C(N(C)C)C2O)C(CCN2CCC(N3CCCCC3)CC2)CC(C)C(=O)C=CC(C)=CC1COC1OC(C)C(O)C(OC)C1OC (stereo not drawn) = 9.2
6) CCC1OC(=O)CC(O)C(C)C(OC2OC(C)C(O)C(N(C)C)C2O)C(CCN2CCCC23CCCCC3)CC(C)C(=O)C=CC(C)=CC1COC1OC(C)C(O)C(OC)C1OC (stereo not drawn) = 9.8

----------
Below, each entry is listed alongside its reported MIC.
Test system: Pasteurella multocida 60A
Assay: MIC, broth-dilution microtiter test (Table X)
Format: cell-based
Settings: Avian isolate, read-out: MIC
experimental_endpoint: MIC (µg/mL)

1. CCC1OC(=O)CC(O)C(C)C(OC2OC(C)C(O)C(N(C)C)C2O)C(CCN2CCCC3CCCCC32)CC(C)C(=O)C=CC(C)=CC1COC1OC(C)C(O)C(OC)C1OC (centres unmarked) = 3.12
2. CCC1OC(=O)CC(O)C(C)C(OC2OC(C)C(O)C(N(C)C)C2O)C(CCN2CCC(Cc3ccccc3)CC2)CC(C)C(=O)C=CC(C)=CC1COC1OC(C)C(O)C(OC)C1OC (centres unmarked) = 12.5
3. CCC1OC(=O)CC(O)C(C)C(OC2OC(C)C(O)C(N(C)C)C2O)C(CCN2C(C)CCCC2C)CC(C)C(=O)C=CC(C)=CC1COC1OC(C)C(O)C(OC)C1OC (centres unmarked) = 50
4. CCC1OC(=O)CC(O)C(C)C(OC2OC(C)C(O)C(N(C)C)C2O)C(CCN2C3CCCCC3C3CCCCC32)CC(C)C(=O)C=CC(C)=CC1COC1OC(C)C(O)C(OC)C1OC (centres unmarked) = 12.5
5. CCC1OC(=O)CC(O)C(C)C(OC2OC(C)CC(N(C)C)C2O)C(CCN2CCCCCC2)CC(C)C(=O)C=CC(C)=CC1COC1OC(C)C(O)C(OC)C1OC (centres unmarked) = 3.12
6. CCC1OC(=O)CC(O)C(C)C(OC2OC(C)C(O)C(N(C)C)C2O)C(CCN2C[C@H](C)C[C@H](C)C2)CC(C)C(=O)C=CC(C)=CC1COC1OC(C)C(O)C(OC)C1OC (some centres unmarked) = 12.5
7. CCC1OC(=O)CC(O)C(C)C(OC2OC(C)C(O)C(N(C)C)C2O)C(CCN2CCCCCCC2)CC(C)C(=O)C=CC(C)=CC1COC1OC(C)C(O)C(OC)C1OC (centres unmarked) = 6.25
8. CCC1OC(=O)CC(O)C(C)C(OC2OC(C)C(O)C(N(C)C)C2O)C(CCN2CCCc3ccccc32)CC(C)C(=O)C=CC(C)=CC1COC1OC(C)C(O)C(OC)C1OC (centres unmarked) = 50
9. CCC1OC(=O)CC(O)C(C)C(OC2OC(C)C(O)C(N(C)C)C2O)C(CCN2CCC3CCCCC3C2)CC(C)C(=O)C=CC(C)=CC1COC1OC(C)C(O)C(OC)C1OC (centres unmarked) = 6.25
10. CCC1OC(=O)CC(O)C(C)C(OC2OC(C)C(O)C(N(C)C)C2O)C(CCN2CCCCCC2)CC(C)C(=O)C=CC(C)=CC1COC1OC(C)C(O)C(O)C1OC (centres unmarked) = 12.5

----------
Test system: Staphyloccus aureus X1.1
Assay: MIC, standard agar-dilution assay (Table IX)
Assay type: cell-based, Staphylococcus aureus
Conditions: Staphylococcus aureus, read-out: MIC
Below, each entry is listed alongside its reported MIC.
experimental_endpoint: MIC (µg/mL)

1. CCC1OC(=O)CC(O)C(C)C(OC2OC(C)C(O)C(N(C)C)C2O)C(CCN2CCC(c3ccccc3)CC2)CC(C)C(=O)C=CC(C)=CC1COC1OC(C)C(O)C(OC)C1OC (centres unmarked) [Compound D4] = 0.5
2. CCC1OC(=O)CC(O)C(C)C(OC2OC(C)C(O)C(N(C)C)C2O)C(CCN2CCc3ccccc3C2)CC(C)C(=O)C=CC(C)=CC1COC1OC(C)C(O)C(OC)C1OC (centres unmarked) [Compound D12] = 0.5
3. CCC1OC(=O)CC(O)C(C)C(OC2OC(C)C(O)C(N(C)C)C2O)C(CCN2CC3CCC(CC3)C2)CC(C)C(=O)C=CC(C)=CC1COC1OC(C)C(O)C(OC)C1OC (centres unmarked) [Compound D14] = 0.25
4. CCC1OC(=O)CC(O)C(C)C(OC2OC(C)C(O)C(N(C)C)C2O)C(CCN2C(C)CCCC2C)CC(C)C(=O)C=CC(C)=CC1COC1OC(C)C(O)C(OC)C1OC (centres unmarked) [Compound D41] = 8
5. CCC1OC(=O)CC(O)C(C)C(OC2OC(C)C(OC3CC(C)(O)C(O)C(C)O3)C(N(C)C)C2O)C(CCN2CCCCCCC2)CC(C)C(=O)C=CC(C)=CC1COC1OC(C)C(O)C(OC)C1OC (centres unmarked) [Compound T6] = 4

----------
Test system: Staphyloccus aureus X1.1
Assay: MIC, standard agar-dilution assay (Table IX)
Format: cell-based, Staphylococcus aureus
Conditions: Staphylococcus aureus, read-out: MIC
Below, each entry is listed alongside its reported MIC.
experimental_endpoint: MIC (µg/mL)

1. CCC1OC(=O)CC(O)C(C)C(OC2OC(C)C(O)C(N(C)C)C2O)C(CCN2CCCCCC2)CC(C)C(=O)C=CC(C)=CC1COC1OC(C)C(O)C(O)C1OC (stereo not shown) = 2
2. CCC1OC(=O)CC(O)C(C)C(OC2OC(C)C(O)C(N(C)C)C2O)C(CCN2CCc3ccccc32)CC(C)C(=O)C=CC(C)=CC1COC1OC(C)C(O)C(OC)C1OC (stereo not shown) = 5
3. CCC1OC(=O)CC(O)C(C)C(OC2OC(C)C(O)C(N(C)C)C2O)C(CCN2CCCCCCC2)CC(C)C(=O)C=CC(C)=CC1COC1OC(C)C(O)C(OC)C1OC (stereo not shown) = 0.5
4. CCC1OC(=O)CC(O)C(C)C(OC2OC(C)C(O)C(N(C)C)C2O)C(CCN2C3CCCCC3C3CCCCC32)CC(C)C(=O)C=CC(C)=CC1COC1OC(C)C(O)C(OC)C1OC (stereo not shown) = 0.5
5. CCC1OC(=O)CC(O)C(C)C(OC2OC(C)C(O)C(N(C)C)C2O)C(CCN2CCC(Cc3ccccc3)CC2)CC(C)C(=O)C=CC(C)=CC1COC1OC(C)C(O)C(OC)C1OC (stereo not shown) = 1
6. CCC1OC(=O)CC(O)C(C)C(OC2OC(C)C(O)C(N(C)C)C2O)C(CCN2CCCCC2)CC(C)C(=O)C=CC(C)=CC1COC1OC(C)C(O)C(OC)C1OC (stereo not shown) [Compound D2, 20-DH-DO-20-(piperidin-1-yl)desmycosin] = 0.5
7. CCC1OC(=O)CC(O)C(C)C(OC2OC(C)C(O)C(N(C)C)C2O)C(CCN2CC3(C)CC2CC(C)(C)C3)CC(C)C(=O)C=CC(C)=CC1COC1OC(C)C(O)C(OC)C1OC (stereo not shown) = 1
8. CCC1OC(=O)CC(O)C(C)C(OC2OC(C)C(O)C(N(C)C)C2O)C(CCN2CCCC(C)(C)C2)CC(C)C(=O)C=CC(C)=CC1COC1OC(C)C(O)C(OC)C1OC (stereo not shown) = 0.5
9. CCC1OC(=O)CC(O)C(C)C(OC2OC(C)CC(N(C)C)C2O)C(CCN2CCCCCC2)CC(C)C(=O)C=CC(C)=CC1COC1OC(C)C(O)C(OC)C1OC (stereo not shown) = 0.5
10. CCC1OC(=O)CC(O)C(C)C(OC2OC(C)C(OC3CC(C)(O)C(O)C(C)O3)C(N(C)C)C2O)C(CCN2CC3CCC(CC3)C2)CC(C)C(=O)C=CC(C)=CC1COC1OC(C)C(O)C(OC)C1OC (stereo not shown) = 4
